src = PubChem BioAssay (NCI)

Tested on: OVCAR-3 ovarian
Experiment: NCI tumour cell line growth inhibition, 48 h
Listing of recorded TGI by entry.
PARAMETER: TGI

CCN(CC)CCCNC(=O)c1c2c(n3ccccc13)C(=O)c1ncccc1C2=O = 0.938 µM
CN/N=C(\C)C(CN(C)C)C(c1ccccc1)c1c(O)c2ccccc2oc1=O (centres undefined) = > 100 µM
CC(C)C1=CC23CCC4C(C)(C(=O)O)CCCC4(C)C2CC1C1C(=O)N(c2ccccc2)C(=O)C13 (centres undefined) = > 100 µM
CCOC(=O)CC(=O)Nc1cccc2[nH]cnc12 = > 100 µM

----------
Tested on: M14 melanoma
Experiment: NCI tumour cell line growth inhibition, 48 h
Parameter: TGI. Scope: all listed entries.
PARAMETER: TGI

CC1=C(C(=O)c2ccccc2)C23C(=O)N(c4ccccc4)C(=O)C2=C(O)C=CC3(O)N1 (stereo unspecified) = > 100 µM
O=Cc1ccc(-c2ccc(-c3nc4ccccc4o3)cc2)o1 = > 100 µM
O=C(Nc1ccc(-n2ccc3c(NC(=O)c4ccccc4)ncnc32)cc1)Nc1cccc(Cl)c1Cl = 2.11 µM
O=C1OC(=O)c2cc(S(=O)(=O)c3ccc4c(c3)C(=O)OC4=O)ccc21 = > 100 µM
Clc1ccc(C(SCc2ccccc2)SCc2ccccc2)cc1 = > 10 µM
N#CC1=C(N)NC(N2CCOCC2)=NC12Nc1ccccc1N2 = > 100 µM
COc1ccc(CN=C(N)N)c2ccccc12 = > 100 µM
CC(=O)N=C1N(/C=C2\C(=O)Oc3ccccc3C2=O)C(=O)/C(=C/c2ccc(NC(C)=O)cc2)N1C = > 100 µM
Cc1cc(C)c(NC(=S)NC(=O)c2ccccc2)cc1C = > 100 µM
NNC(=O)c1nnn(CCc2ccccc2)c1C(=O)NN = > 100 µM
O=CC12C3CCC1C2C(=O)C3 (stereo unspecified) = > 100 µM

----------
Tested on: A549 NSCLC
Experiment: NCI tumour cell line growth inhibition, 48 h; in the data active = GI50 below about 0.43 µM; inactive = the rest
Possible outcomes: active, inactive

COc1ccc2nc3cc([N+](=O)[O-])ccc3c(NCCCN(C)C)c2c1 = inactive
COc1ccc(OC)c(-c2cc(-c3ccc(Cl)cc3)nn2-c2ccc(S(=O)(=O)NC(C)=O)cc2)c1 = inactive
N#CC1=C(N)NC(N2CCOCC2)=NC12Nc1ccccc1N2 = inactive
COc1nc(N)nc2c1ncn2C1OC(CO)C(O)C1O (configuration not stated) = inactive
Cc1cc(C)c(Cn2cnc3c(Cl)ncnc32)c(C)c1CCl = inactive
COc1cccc(NC(=O)c2sc3nc4c(cc3c2N)C(=O)CCC4)c1 = active
COc1cc(CNc2ccccc2C(=O)N2CCN(C(=O)c3cc(-c4cc(OC)c(OC)c(OC)c4)n4nc(-c5ccccc5)cc4n3)CC2)cc(OC)c1OC = inactive

----------
Below, each entry is listed alongside its reported GI50.
Test system: ACHN renal
Experiment: NCI tumour cell line growth inhibition, 48 h
PARAMETER: GI50

COc1ccc(OC)c2c1[nH]c(=O)c1c3ncccc3cn21 = 2.03 µM
CC(=O)[CH-]C(=O)c1ccccc1.CC(=O)[CH-]C(=O)c1ccccc1.CCOCC[O-].CCOCC[O-].[Ti+4] = 31.6 µM
Cc1nc(N2CCC3(CC2)CO[C@@H](C)[C@H]3N)c(CO)nc1Sc1ccnc(N)c1Cl = 4.81 µM
COc1ccccc1CNCCCN1C(=O)c2ccc3c4c(ccc(c24)C1=O)C(=O)N(CCCCNCCCN)C3=O = 3.68 µM
OCC(O)c1nc2ccc3[nH]ncc3c2c2c1CCCC2 (stereo not drawn) = 1.13 µM
C=C1CCC2C(C)(COC(=O)CC)C(OC(=O)CC)CCC2(C)C1C/C=C1/C(=O)OCC1OC(=O)CC (stereo not drawn) = 1.74 µM
Cc1cc(CC(C)CC(C)(C)C)n(O)c(=O)c1 (stereo not drawn) (tested in a mixture with another compound) = 0.385 µM
O=C(/C=C/c1ccccc1)n1c(-c2ccc(Cl)cc2)nc2ccccc21 = 1.18 µM
Cc1cn2c(/C=N/N=C(N)N)c(-c3cccs3)nc2s1 = 2.12 µM
Nc1nc(N)c2cc(NCc3ccc(Cl)c(Cl)c3)ccc2n1 = 1.31 µM
COC(=O)c1cc(O)c2c(c1C(=O)OC)C[C@H]1[C@@H]3CC=C4C[C@@H](O)CC[C@]4(C)[C@H]3CC[C@]21C = 3.64 µM
COc1ccc(C(=O)c2cc3c(N)c(C(=O)Nc4ccc(C)cc4)sc3nc2C)cc1 = 5.28 µM
COc1cccc(NC(=O)c2sc3nc4c(cc3c2N)C(=O)CCC4)c1 = 0.568 µM

----------
Test system: NCI-H460 lung
Experiment: NCI tumour cell line growth inhibition, 48 h
PARAMETER: TGI

C/C=C/C1OC(O)(C(C)C(O)[C@H](C)C2OC(=O)/C(OC)=C/C(C)=C/[C@@H](C)[C@@H](O)[C@@H](C)C(O)C(C)C/C(C)=C/C=C/C2OC)C[C@@H](OC2CC(O)C(OC(N)=O)C(C)O2)C1C (some centres undefined) = 1.36 µM
O=c1[nH]nc(Cc2ccccc2)n1CCO = > 100 µM
CN(C)c1nc(=Nc2cccc(Cl)c2)ss1 = 46.3 µM
COC(=O)[C@H](Cc1c[nH]c2ccccc12)NC(=O)c1ccc(CNC(=O)/C=C/c2cccc(Oc3ccccc3)c2)cc1 = > 100 µM
Cc1cccc(C)c1NC(=O)Nc1ccc(S(N)(=O)=O)cc1 = > 100 µM
O=C(Cc1ccccc1)Nn1c(-c2ccccc2)nc2ccccc2c1=O = > 100 µM
Cc1cn([C@@H]2O[C@H](CO[Si](C)(C)C(C)(C)C)[C@]3(O[C@H]3C(=O)NN)[C@H]2O[Si](C)(C)C(C)(C)C)c(=O)[nH]c1=O = 15.6 µM
COC1=CC(=O)C2C(C1=O)C(c1ccccc1)[C@H]2C (some centres undefined) = > 100 µM
O=CC12C3CCC1C2C(=O)C3 (centres undefined) = > 100 µM

----------
Listed here: items and their measured TGI.
Test system: SW-620 colon
Experiment: NCI tumour cell line growth inhibition, 48 h
PARAMETER: TGI (µM)

CCOC(=O)C(C)(C)Oc1ccc(/C=C/C(=O)c2ccc(Cl)cc2)cc1 = 28
CCN(CC)CCNC(=O)c1cn2c(ccc3sc4ccccc4c(=O)c32)n1 = 20.3
CCOC(=O)c1sc2[n+](c1C)C(=O)/C(=C/c1ccc([N+](=O)[O-])cc1)S2 = 73.5
Clc1ccc(C2Nc3ccccc3C3=NCCN32)cc1 (stereo not given) = 98.6

----------
System: SK-OV-3 ovarian
Assay: NCI tumour cell line growth inhibition, 48 h; in the data active = GI50 below about 0.43 µM; inactive = the rest
Outcome codes: 1 (yes) for active, 0 (no) for inactive

COc1cc(CNc2ccccc2C(=O)N2CCN(C(=O)c3cc(-c4cc(OC)c(OC)c(OC)c4)n4nc(-c5ccccc5)cc4n3)CC2)cc(OC)c1OC = 0 (no)
COc1ccc(/C=N\Nc2ccc([N+](=O)[O-])cn2)cc1OC = 0 (no)
COc1cccc(NC(=O)c2sc3nc4c(cc3c2N)C(=O)CCC4)c1 = 1 (yes)
OCC(O)c1nc2ccc3[nH]ncc3c2c2c1CCCC2 (centres undefined) = 0 (no)
CCN(CC)CCCC(C)N=C(C1=C(C(=NC(C)CCCN(CC)CC)c2cccc(OC)c2)C(=O)NC1=O)c1cccc(OC)c1 (centres undefined) = 0 (no)
CC(C)(C)[Si](C)(C)OC1[C@@H](O[Si](C)(C)C(C)(C)C)[C@@H](CNC(=O)NC(=O)CCl)O[C@H]1n1cnc2c(NC(=O)Nc3ccccc3)ncnc21 (some centres undefined) = 0 (no)
CNC(=O)Cc1nc(-c2cccc(NS(=O)(=O)c3c(F)cccc3F)c2F)c(-c2ccnc(Nc3ccccc3)n2)s1 = 0 (no)
O=Cc1ccc(-c2ccc(-c3nc4ccccc4o3)cc2)o1 = 0 (no)
CCCC(CCC)C(=O)OCC1(CO)C/C(=C\c2ccc(F)cc2)C(=O)O1 (centres undefined) = 0 (no)

----------
Listed below: GI50 values for each entry.
Tested on: NCI-H23 lung
Assay: NCI tumour cell line growth inhibition, 48 h
PARAMETER: GI50

Cc1cc(CC(C)CC(C)(C)C)n(O)c(=O)c1 (stereo not given) (tested in a mixture with another compound) = 0.559 µM
O=C(OCc1ncc(-c2ccc(C(F)(F)F)cc2)c(NC2CCCCCC2)n1)c1c(F)c(F)c(F)c(F)c1F = 10.6 µM
COc1ccc(OC)c2c1[nH]c(=O)c1c3ncccc3cn21 = 3.58 µM
Cc1cn2c(/C=N/N=C(N)N)c(-c3cccs3)nc2s1 = 11.7 µM
C=C(OC1C(C)=C2C(C1OC(=O)CCCCCCC)C(C)(OC(C)=O)CC(OC(=O)CCC)C1(O)C2OC(=O)C1(C)O)/C(C)=C/C (stereo not given) = < 0.0001 µM
Cc1cc(N2CCSCC2)nc(NC2CCCC(Nc3ccnc4cc(Cl)ccc34)C2)n1 (stereo not given) = 2.55 µM
CCN(CC)CCCNC(=O)c1c2c(n3ccccc13)C(=O)c1ncccc1C2=O = 0.252 µM
COc1cc(Nc2nc3ccccc3cc2C(=O)Nc2ccc(F)c(F)c2)cc(OC)c1OC = 2.84 µM
CCC(CNc1cc(OC)cc2cccnc12)NC1CCCCC1 (stereo not given) = 51.3 µM
COc1cc(-c2nc(-c3nc4ccccc4[nH]3)cc3c2[nH]c2ccccc23)cc(OC)c1OC = 4.4 µM
